// data source = patent US9315490B2

biological target: human PDE4B1 (Homo sapiens, UniProt Q07343); construct: host or cells: Sf9 cells; assay: cAMP HTRF assay to determine the activity of hPDE4B1; format: biochemical; conditions: inhibition of PDE4B at a test concentration of 1 μM
Sequence (Q07343 whole entry): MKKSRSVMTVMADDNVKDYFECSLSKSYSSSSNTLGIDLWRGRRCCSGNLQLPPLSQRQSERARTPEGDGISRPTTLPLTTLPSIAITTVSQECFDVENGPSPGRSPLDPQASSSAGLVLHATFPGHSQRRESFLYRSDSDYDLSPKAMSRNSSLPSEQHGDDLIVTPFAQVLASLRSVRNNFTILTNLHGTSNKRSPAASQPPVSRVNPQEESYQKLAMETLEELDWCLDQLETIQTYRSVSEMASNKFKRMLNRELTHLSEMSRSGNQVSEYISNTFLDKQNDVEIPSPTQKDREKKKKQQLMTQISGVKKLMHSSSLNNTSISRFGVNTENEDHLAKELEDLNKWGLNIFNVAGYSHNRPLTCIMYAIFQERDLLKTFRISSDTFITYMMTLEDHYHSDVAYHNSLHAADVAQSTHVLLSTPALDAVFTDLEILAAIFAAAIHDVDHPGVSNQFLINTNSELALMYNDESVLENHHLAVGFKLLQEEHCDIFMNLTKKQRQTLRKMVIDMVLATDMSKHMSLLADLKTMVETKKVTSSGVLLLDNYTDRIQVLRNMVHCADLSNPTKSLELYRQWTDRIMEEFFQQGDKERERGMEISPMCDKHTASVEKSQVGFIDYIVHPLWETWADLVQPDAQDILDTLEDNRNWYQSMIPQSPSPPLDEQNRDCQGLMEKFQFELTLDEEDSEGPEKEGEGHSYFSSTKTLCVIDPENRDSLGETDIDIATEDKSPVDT

[
  {
    "compound": "CN(CC1CC1)C(=O)c1ccc2c([S+](C)[O-])cn(-c3ncc(-c4ccccc4F)cn3)c2c1 (stereo not shown)",
    "experimental_system": "human PDE4B1 (Homo sapiens, UniProt Q07343)",
    "inhibition at 1 µM [%]": 75
  },
  {
    "compound": "CCN(C)C(=O)c1ccc2c([S+](C)[O-])cn(-c3ncc(-c4ccccc4F)cn3)c2c1 (stereo not shown)",
    "experimental_system": "human PDE4B1 (Homo sapiens, UniProt Q07343)",
    "inhibition at 1 µM [%]": 96
  },
  {
    "compound": "CN1CCN(C(=O)c2ccc3c([S+](C)[O-])cn(-c4ncc(-c5ccccc5F)cn4)c3c2)CC1=O (stereo not shown)",
    "experimental_system": "human PDE4B1 (Homo sapiens, UniProt Q07343)",
    "inhibition at 1 µM [%]": 58
  },
  {
    "compound": "CN(C)C(=O)CN1CCN(C(=O)c2ccc3c([S+](C)[O-])cn(-c4ncc(-c5ccccc5F)cn4)c3c2)CC1 (stereo not shown)",
    "experimental_system": "human PDE4B1 (Homo sapiens, UniProt Q07343)",
    "inhibition at 1 µM [%]": 0
  },
  {
    "compound": "C[S+]([O-])c1cn(-c2ncc(-c3ccc(F)cc3)cn2)c2cc(C(=O)N3CCOCC3)ccc12 (stereo not shown)",
    "experimental_system": "human PDE4B1 (Homo sapiens, UniProt Q07343)",
    "inhibition at 1 µM [%]": 80
  },
  {
    "compound": "Cc1ccc(-c2cnc(-n3cc([S+](C)[O-])c4ccc(C(=O)N5CCOCC5)cc43)nc2)cc1 (stereo not shown)",
    "experimental_system": "human PDE4B1 (Homo sapiens, UniProt Q07343)",
    "inhibition at 1 µM [%]": 102
  },
  {
    "compound": "CN1CCCN(C(=O)c2ccc3c([S+](C)[O-])cn(-c4ncc(-c5ccccc5F)cn4)c3c2)CC1 (stereo not shown)",
    "experimental_system": "human PDE4B1 (Homo sapiens, UniProt Q07343)",
    "inhibition at 1 µM [%]": 31
  }
]

###

Measured inhibition at 1 µM by item
target: human PDE4B1 (Homo sapiens, UniProt Q07343); construct: host or cells: Sf9 cells; experiment: cAMP HTRF assay to determine the activity of hPDE4B1; format: biochemical; details: inhibition of PDE4B at a test concentration of 1 μM

[
  {
    "molecule": "C[S+]([O-])c1cn(-c2ncc(-c3ccccc3)cn2)c2cc(C(=O)N3CCNC(=O)C3)ccc12 (stereo not shown)",
    "inhibition at 1 µM [%]": 84
  },
  {
    "molecule": "COc1cccc(-c2cnc(-n3cc([S+](C)[O-])c4ccc(C(=O)N5CCOCC5)cc43)nc2)c1 (stereo not shown)",
    "inhibition at 1 µM [%]": 115
  },
  {
    "molecule": "CS(=O)(=O)c1cn(-c2ncc(-c3ccccc3F)cn2)c2cc(C(=O)N3CCOCC3)ccc12",
    "inhibition at 1 µM [%]": 109
  },
  {
    "molecule": "C[S+]([O-])c1cn(-c2ncc(-c3ccccc3)cn2)c2cc(C(=O)N3CCOCC3)ccc12 (stereo not shown) [Example 4]",
    "inhibition at 1 µM [%]": 82
  }
]

###

Measured inhibition at 1 µM by item
target: human PDE4B1 (Homo sapiens); construct: host or cells: Sf9 cells; assay: cAMP HTRF assay to determine the activity of hPDE4B1; type: biochemical; conditions: inhibition of PDE4B at a test concentration of 1 μM
quantity_measured: inhibition at 1 µM (%)

[
  {
    "compound": "CCC1CCCCN1C(=O)c1ccc2c([S+](C)[O-])cn(-c3ncc(-c4ccccc4F)cn3)c2c1 (stereo not drawn) [Example 371]",
    "test_result": 32
  },
  {
    "compound": "CCOC(=O)N1CCN(C(=O)c2ccc3c([S+](C)[O-])cn(-c4ncc(-c5ccccc5F)cn4)c3c2)CC1 (stereo not drawn) [Example 394]",
    "test_result": 0
  },
  {
    "compound": "COc1ccc(F)c(-c2cnc(-n3cc(S(C)(=O)=O)c4ccc(C(=O)N5CCOCC5)cc43)nc2)c1 [Example 162]",
    "test_result": 95
  },
  {
    "compound": "C[S+]([O-])c1cn(-c2ncc(-c3cc(C#N)ccc3F)cn2)c2cc(C(=O)N3CCOCC3)ccc12 (stereo not drawn) [Example 2]",
    "test_result": 98
  },
  {
    "compound": "C[S+]([O-])c1cn(-c2ncc(-c3cccc(O)c3)cn2)c2cc(C(=O)N3CCOCC3)ccc12 (stereo not drawn) [Example 149]",
    "test_result": 87
  },
  {
    "compound": "C[S+]([O-])c1cn(-c2ncc(-c3ccccc3F)cn2)c2cc(C(=O)N3CCCCC3)ccc12 (stereo not drawn) [Example 358]",
    "test_result": 98
  },
  {
    "compound": "CS(=O)(=O)c1cn(-c2ncc(-c3cc(C#N)ccc3F)cn2)c2cc(C(=O)N3CC[C@@H](N)C3)ccc12 [Example 229]",
    "test_result": 106
  },
  {
    "compound": "C[S+]([O-])c1cn(-c2ncc(-c3ccc(C(N)=O)cc3)cn2)c2cc(C(=O)N3CCOCC3)ccc12 (stereo not drawn) [Example 42]",
    "test_result": 86
  },
  {
    "compound": "C[S+]([O-])c1cn(-c2ncc(-c3cccc(C#N)c3)cn2)c2cc(C(=O)N3CCOCC3)ccc12 (stereo not drawn) [Example 40]",
    "test_result": 93
  },
  {
    "compound": "C[S+]([O-])c1cn(-c2ncc(-c3ccc(C#N)cc3)cn2)c2cc(C(=O)N3CCOCC3)ccc12 (stereo not drawn) [Example 31]",
    "test_result": 75
  },
  {
    "compound": "COc1cccc(-c2cnc(-n3cc(S(C)(=O)=O)c4ccc(C(=O)N5CCNC(=O)C5)cc43)nc2)c1 [Example 153]",
    "test_result": 76
  },
  {
    "compound": "C[S+]([O-])c1cn(-c2ncc(-c3cc(F)ccn3)cn2)c2cc(C(=O)N3CCOCC3)ccc12 (stereo not drawn) [Example 182]",
    "test_result": 95
  },
  {
    "compound": "C[S+]([O-])c1cn(-c2ncc(-c3ccccc3F)cn2)c2cc(C(=O)N3CCCC3)ccc12 (stereo not drawn) [Example 51]",
    "test_result": 86
  },
  {
    "compound": "CCN1CCN(C(=O)c2ccc3c([S+](C)[O-])cn(-c4ncc(-c5ccccc5F)cn4)c3c2)CC1 (stereo not drawn) [Example 375]",
    "test_result": 66
  },
  {
    "compound": "CC1CCN(C(=O)c2ccc3c([S+](C)[O-])cn(-c4ncc(-c5ccccc5F)cn4)c3c2)CC1 (stereo not drawn) [Example 363]",
    "test_result": 41
  }
]

###

Measured melting point by item
quantity_measured: melting point

[
  {
    "compound": "C[S+]([O-])c1cn(-c2ncc(-c3cc(N)ccn3)cn2)c2cc(C(=O)N3CCOCC3)ccc12 (stereo not drawn) [Example 209]",
    "quantity_measured": "melting point",
    "test_result": "293 to 297 °C"
  },
  {
    "compound": "C[S+]([O-])c1cn(-c2ncc(-c3ccnnc3)cn2)c2cc(C(=O)N3CCOCC3)ccc12 (stereo not drawn) [Example 212]",
    "quantity_measured": "melting point",
    "test_result": "278 to 282 °C"
  },
  {
    "compound": "Cc1csc(-c2cnc(-n3cc([S+](C)[O-])c4ccc(C(=O)N5CCOCC5)cc43)nc2)n1 (stereo not drawn) [Example 205]",
    "quantity_measured": "melting point",
    "test_result": "247 to 249 °C"
  },
  {
    "compound": "C[S+]([O-])c1cn(-c2ncc(-c3ncc(C#N)s3)cn2)c2cc(C(=O)N3CCOCC3)ccc12 (stereo not drawn) [Example 207]",
    "quantity_measured": "melting point",
    "test_result": "280 to 283 °C"
  },
  {
    "compound": "CS(=O)(=O)c1cn(-c2ncc(-c3ccc(C(N)=O)cc3F)cn2)c2cc(C(=O)N3CCOCC3)ccc12 [Example 7]",
    "quantity_measured": "melting point",
    "test_result": "263 to 266 °C"
  },
  {
    "compound": "CS(=O)(=O)c1cn(-c2ncc(-c3ccc(F)cc3F)cn2)c2cc(C(=O)N3CCNCC3)ccc12 [Example 23]",
    "quantity_measured": "melting point",
    "test_result": "229 to 233 °C"
  },
  {
    "compound": "CS(=O)(=O)c1cn(-c2ncc(-c3ccccc3F)cn2)c2cc(C(=O)N3CCNCC3)ccc12 [Example 24]",
    "quantity_measured": "melting point",
    "test_result": "206 to 210 °C"
  },
  {
    "compound": "C[S+]([O-])c1cn(-c2ncc(-c3cc(C#N)ccc3F)cn2)c2cc(C(=O)N3CCOCC3)ccc12 (stereo not drawn) [Example 2]",
    "quantity_measured": "melting point",
    "test_result": "262 to 266 °C"
  },
  {
    "compound": "C[S+]([O-])c1cn(-c2ncc(-c3ccccc3)cn2)c2cc(C(=O)N3CCNCC3)ccc12 (stereo not drawn) [Example 12]",
    "quantity_measured": "melting point",
    "test_result": "193 to 197 °C"
  },
  {
    "compound": "C[S+]([O-])c1cn(-c2ncc(-c3ccccc3F)cn2)c2cc(C(=O)N3CCNCC3)ccc12 (stereo not drawn) [Example 13]",
    "quantity_measured": "melting point",
    "test_result": "199 to 203 °C"
  },
  {
    "compound": "C[S+]([O-])c1cn(-c2ncc(-c3nc(C(N)=O)cs3)cn2)c2cc(C(=O)N3CCOCC3)ccc12 (stereo not drawn) [Example 204]",
    "quantity_measured": "melting point",
    "test_result": "286 to 288 °C"
  },
  {
    "compound": "O=C(c1ccc2c(CO)cn(-c3ncc(-c4ccccc4F)cn3)c2c1)N1CCOCC1 [Example 27]",
    "quantity_measured": "melting point",
    "test_result": "190 to 194 °C"
  },
  {
    "compound": "C[S+]([O-])c1cn(-c2ncc(-c3ncccc3F)cn2)c2cc(C(=O)N3CCOCC3)ccc12 (stereo not drawn) [Example 201]",
    "quantity_measured": "melting point",
    "test_result": "222 to 225 °C"
  },
  {
    "compound": "C[S+]([O-])c1cn(-c2ncc(-c3nc(C#N)cs3)cn2)c2cc(C(=O)N3CCOCC3)ccc12 (stereo not drawn) [Example 203]",
    "quantity_measured": "melting point",
    "test_result": "273 to 276 °C"
  },
  {
    "compound": "COC(=O)c1cccc(-c2cnc(-n3cc([S+](C)[O-])c4ccc(C(=O)N5CCOCC5)cc43)nc2)c1 (stereo not drawn) [Example 192]",
    "quantity_measured": "melting point",
    "test_result": "217 to 220 °C"
  }
]
